biological target: PDGFR (UniProt P09619); construct: PDGFR-β expressing NIH 3T3 cell lysate (SUGEN, Inc.); test: PDGFR bioassay (ELISA, in vitro kinase activity); details: PDGFR-β expressing NIH 3T3 cell lysate, 20 μM ATP
RESULT_TYPE: pIC50
Convention used: pIC50 is expressed as -log10 of the molar concentration.

Recorded results for 8 compounds are shown here.
- STRUCTURE: "COc1cccc(-c2cccc3c2/C(=C/c2[nH]c(C)c(C(=O)NCCN(C(C)C)C(C)C)c2C)C(=O)N3)c1"
  SYSTEM: "PDGFR (UniProt P09619)"
  pIC50: 5.81
- STRUCTURE: "CCN(CC)CCNC(=O)c1c(C)[nH]c(/C=C2\\C(=O)Nc3cccc(-c4cccc(Cl)c4)c32)c1C"
  SYSTEM: "PDGFR (UniProt P09619)"
  pIC50: 6.16
- STRUCTURE: "Cc1[nH]c(/C=C2\\C(=O)Nc3cccc(-c4ccc(Cl)cc4)c32)c(C)c1C(=O)N1CCN(C)CC1"
  SYSTEM: "PDGFR (UniProt P09619)"
  pIC50: 5.47
- STRUCTURE: "CCOC(=O)c1c(C)[nH]c(/C=C2\\C(=O)Nc3cccc(-c4cccc(F)c4)c32)c1CCCN1CCN(C)CC1"
  SYSTEM: "PDGFR (UniProt P09619)"
  pIC50: 4.98
- STRUCTURE: "Cc1cc(C(=O)N2CC[C@@H](N(C)C)C2)c(/C=C2\\C(=O)Nc3cccc(-c4ccc(Cl)cc4)c32)[nH]1"
  SYSTEM: "PDGFR (UniProt P09619)"
  pIC50: 4.93
- STRUCTURE: "Cc1cc(C(=O)N2C[C@@H](C)N[C@@H](C)C2)c(/C=C2\\C(=O)Nc3cccc(-c4cccc(Cl)c4)c32)[nH]1"
  SYSTEM: "PDGFR (UniProt P09619)"
  pIC50: 5.80
- STRUCTURE: "Cc1[nH]c(/C=C2\\C(=O)Nc3cccc(-c4cccc(F)c4)c32)c(C)c1C(=O)NCCn1ccnn1"
  SYSTEM: "PDGFR (UniProt P09619)"
  pIC50: 4.99
- STRUCTURE: "CCN(CC)CCNC(=O)c1c(C)[nH]c(/C=C2\\C(=O)Nc3cccc(-c4ccccc4)c32)c1C"
  SYSTEM: "PDGFR (UniProt P09619)"
  pIC50: 6.36

Incoming: Field request: pIC50 | item: Cc1[nH]c(/C=C2\C(=O)Nc3cccc(-c4ccc(F)cc4)c32)c(C)c1C(=O)N1CCN(C)CC1
Outgoing: 4.84

Incoming: Next compound up: CCN(CC)CCNC(=O)c1c(C)[nH]c(/C=C2\C(=O)Nc3cccc(-c4cccc(OC)c4)c32)c1C
Outgoing: 5.38

Incoming: Now consider Cc1[nH]c(/C=C2\C(=O)Nc3cccc(-c4ccc(F)cc4)c32)c(C)c1C(=O)NCCN1CCCC1 .
Outgoing: 5.53

Incoming: What do you get for Cc1cc(C(=O)NCCN2CCCC2)c(/C=C2\C(=O)Nc3cccc(-c4ccc(Br)cc4)c32)[nH]1 ?
Outgoing: 4.79

Incoming: Request: Cc1[nH]c(/C=C2\C(=O)Nc3cccc(-c4ccc(Br)cc4)c32)c(C)c1C(=O)NCCN(C(C)C)C(C)C
Outgoing: 5.63

Incoming: Likewise for Cc1[nH]c(/C=C2\C(=O)Nc3cccc(-c4cccc(C(F)(F)F)c4)c32)c(C)c1C(=O)N1CCN(C)CC1 ?
Outgoing: 4.72

Incoming: Entry to check: COc1ccc(-c2cccc3c2/C(=C/c2[nH]c(C)cc2C(=O)NCCN2CCCC2)C(=O)N3)cc1
Outgoing: 5.42
